Test system: MDA-MB-231 breast
Assay: NCI-60 one-dose screen, 48 h (100 = growth as untreated, 0 = no growth, -100 = all killed)
Settings: 10 µM unless noted
The panel holds about 83,000 compounds, 20% with a hit somewhere; the sample as a whole holds those more often.
Catalogue of growth readings, one per entry.
Metric name: growth (%)

| Compound | Test system | Data value |
| --- | --- | --- |
| CCN1C(=O)N(CC)C2Nn3c(s/c(=C\c4ccccc4F)c3=O)=NC21 (stereo not drawn) | MDA-MB-231 breast | 35.1 |
| COc1cc(C2C(C#N)=C(N)OC3=C2C(=O)c2ccccc2C3=O)cc(OC)c1O (stereo not drawn) | MDA-MB-231 breast | 57.1 |
| Cc1ccc(N=NC2C(=O)N(c3ccc(Cl)cc3)N(c3ccc(Cl)cc3)C2=O)cc1 | MDA-MB-231 breast | 91.7 |
| CC[C@]1(O)C[C@@H]2CN(CCc3c([nH]c4ccccc34)[C@@](C(=O)OC)(c3cc4c(cc3OC)N(C)[C@H]3[C@@](O)(C(=O)OC)[C@H](OC(=O)CCCBr)[C@]5(CC)C=CCN6CC[C@]43[C@@H]65)C2)C1 | MDA-MB-231 breast | -16.5 |
| CCOC(=O)C1(C(=O)OCC)N=C(c2ccccc2)C=C1c1ccccc1 | MDA-MB-231 breast | 96.3 |
| Cn1cc(-c2ccc3ncc(-c4ccc(CC(=O)Nc5cc(C(C)(C)C)no5)cc4)nc3c2)cn1 | MDA-MB-231 breast | 28.7 |
| O=C1N=c2ccccc2=C1c1sc(=Nc2ccccc2)n(Nc2ccccc2)c1O | MDA-MB-231 breast | 95.1 |
| COC(=O)c1c2c(c(C)[n+]([O-])c1C)C(=O)C=C(NCc1ccc(F)c(F)c1)C2=O | MDA-MB-231 breast | -31.2 |
